Assign IFN-γ ELISpot response (SFU) to each entry below.
# System: Patient 2 TCC-02
# Assay Summary: IFN-γ ELISpot with T cell clone
# Assay type: cell-based, human
# Stated Conditions: TCC Patient 2 TCC-02, peptide 25 μg/mL
Field: numeric (SFU). Do not append units.

Please give the measured IFN-γ ELISpot response (SFU) for this sequence: PEQPIPEQPQPYPQQ 1

Follow-up item: QYQPYPEQEEPFVQQQ 284

Follow-up item: YQPYPEQEQPILQQ 145

Follow-up item: SEQYQPYPEQEQPFV [DQ2.5-ave-1b] 102

###

# Tested on: PBMC
# Assay Summary: IFN-γ ELISpot on PBMC of CD patients on day 6 after 3-day oats challenge
# Assay type: cell-based, human
# Stated Conditions: patient P2, peptide 10 μg/ml, after 3-day oats challenge
Assign IFN-γ ELISpot response (raw SFU) to each entry below.
Field: numeric (SFU). Do not append units.

Query the reported IFN-γ ELISpot response (raw SFU) for PBMC; item: QYQPYPEQQQPILQQQ [avenin peptide, Genbank AAB32025 (7-22), wild-type] 10

Follow-up item: EQYQPYPEQQPFMQPL [avenin peptide] 3

Follow-up item: QYQPYPEQEEPFVQQQ 12

Follow-up item: QYQPYPEQEQPILQQQ [partially deamidated avenin peptide containing DQ2.5-ave-1c] 34

Follow-up item: SEQYQPYPEQQEPFVQ [avenin peptide of Genbank Q09097.1, wild-type] 3

Follow-up item: SEQYQPYPEQEQPFVQ [deamidated avenin peptide containing DQ2.5-ave-1b] 9

Follow-up item: EQYQPYPEEQPFMQPL [partially deamidated avenin peptide] 0

Follow-up item: SEQYQPYPEQQQPFVQ [avenin peptide, wild-type] 1

###

# Tested on: PBMC
# Assay Summary: IFN-γ ELISpot on PBMC of CD patients on day 6 after 3-day oats challenge
# Assay type: cell-based, human
# Stated Conditions: patient P1, peptide 10 μg/ml, after 3-day oats challenge
Readout Kind: significant SFU as a percentage of maximal peptide SFU

[
  {
    "Seq String": "QYQPYPEQEEPFVQQQ",
    "Result": "** (**: 40-70%)"
  },
  {
    "Seq String": "SEQYQPYPEQEQPFVQ [deamidated avenin peptide containing DQ2.5-ave-1b]",
    "Result": "** (**: 40-70%)"
  }
]

###

# System: PBMC
# Assay Summary: IFN-γ ELISpot on PBMC of CD patients on day 6 after 3-day oats challenge
# Type: cell-based, human
# Stated Conditions: patient P3, peptide 1 μg/ml, after 3-day oats challenge
Readout Kind: IFN-γ ELISpot response (raw SFU)
Field: numeric (SFU). Do not append units.

Query the reported IFN-γ ELISpot response (raw SFU) for PBMC; item: SEQYQPYPEQEQPFVQ [deamidated avenin peptide containing DQ2.5-ave-1b] 4

Follow-up item: QYQPYPEQEQPILQQQ [partially deamidated avenin peptide containing DQ2.5-ave-1c] 19

Follow-up item: EQYQPYPEEQPFMQPL [partially deamidated avenin peptide] 0

###

# System: Patient 8 TCC-01
# Assay Summary: IFN-γ ELISpot with T cell clone
# Assay type: cell-based, human
# Stated Conditions: TCC Patient 8 TCC-01, peptide 25 μg/mL
Where no end group is shown, it is not given here. [ ]: non-standard residue; d: D form. pGlu = O=C1CC[C@@H](C(=O)O)N1
Assign IFN-γ ELISpot response (SFU) to each entry below.
Give the figure together with its unit, number first.

Query the reported IFN-γ ELISpot response (SFU) for Patient 8 TCC-01; item: QYQPYPEQEEPFVQQQ 0 SFU

Follow-up item: PEQPFPEQPQPYPQQP (not fully specified (C-terminus)) 145 SFU

Follow-up item: PEQPIPEQPQPYPQQ 143 SFU

Follow-up item: SEQYQPYPEQEQPFV [DQ2.5-ave-1b] 50 SFU

Follow-up item: YQPYPEQEQPILQQ 114 SFU

Follow-up item: QPQPYPEQPQPYP ([pGlu]PQPYPEQPQPYP-NH2; SMILES NC(=O)CC[C@H](NC(=O)[C@H](CCC(=O)O)NC(=O)[C@@H]1CCCN1C(=O)[C@H](Cc1ccc(O)cc1)NC(=O)[C@@H]1CCCN1C(=O)[C@H](CCC(N)=O)NC(=O)[C@@H]1CCCN1C(=O)[C@@H]1CCC(=O)N1)C(=O)N1CCC[C@H]1C(=O)N[C@@H](CCC(N)=O)C(=O)N1CCC[C@H]1C(=O)N[C@@H](Cc1ccc(O)cc1)C(=O)N1CCC[C@H]1C(N)=O) 175 SFU

###

# Test system: PBMC
# Assay Summary: IFN-γ ELISpot on PBMC of CD patients after 3-day barley challenge
# Assay type: cell-based, human
# Stated Conditions: Patient 2, peptide 50 μg/ml, after barley challenge
# Text: Australian Caucasian HLA-DQ2.5^+ and/or HLA-DQ8^+ CD subjects were recruited by advertisement in the Coeliac Society of Victoria newsletter and all had biopsy-proven CD conforming to ESPGHAN criteria. Patients had been on strict gluten free diet for at least 4 weeks prior to commencing grain challenge. Patients underwent 3-day grain challenge with oats, barley, or combined wheat, barley, and rye muffins, and 6 days after commencement, blood was collected. […]
Readout Kind: IFN-γ ELISpot response (raw SFU)
Field: numeric (SFU). Do not append units.

Please give the measured IFN-γ ELISpot response (raw SFU) for this sequence: PSEQYQPYPEQEQPILQQEE [avenin library peptide] 159

Follow-up item: SEQYQPYPEQEQPFLQEQPL [avenin library peptide] 208

Follow-up item: EQYQPYPEQQQPFLQQQPLE [avenin library peptide] 196

Follow-up item: EQYQPYPEQQPFMQPL [avenin peptide] 25

Follow-up item: QYQPYPEQEQPILQQQ [partially deamidated avenin peptide containing DQ2.5-ave-1c] 220

Follow-up item: EQYQPYPEQEQPFVQQQPPF [avenin library peptide] 192

Follow-up item: AQFDPSEQYQPYPEQQQPIL [avenin library peptide] 159

Follow-up item: SEQYQPYPEQEQPFVQ [deamidated avenin peptide containing DQ2.5-ave-1b] 225

###

# Tested on: Patient 6 TCC-01
# Assay Summary: IFN-γ ELISpot with T cell clone
# Type: cell-based, human
# Stated Conditions: TCC Patient 6 TCC-01, peptide 50 μg/mL
# Method: Peripheral blood mononuclear cells (PBMC) were isolated from heparinized whole blood using Ficoll-Paque™ Plus density-gradient centrifugation (GE Healthcare). IFN-γ ELISpot (Mabtech) was set up as previously described^8. Isolation of TCC from CD patients was carried out as previously described^8. […]
Where no end group is shown, it is not given here. [ ]: non-standard residue; d: D form. pGlu = O=C1CC[C@@H](C(=O)O)N1
Assign IFN-γ ELISpot response (raw SFU) to each entry below.
Give the figure together with its unit, number first.

Query the reported IFN-γ ELISpot response (raw SFU) for Patient 6 TCC-01; item: YQPYPEQEQPILQQ 2 SFU

Follow-up item: PEQPIPEQPQPYPQQ 86 SFU

Follow-up item: PEQPFPEQPQPYPQQP (not fully specified (C-terminus)) 73 SFU

Follow-up item: LQPFPQPELPYPQPQ [reference compound] 2 SFU

Follow-up item: QPQPYPEQPQPYP ([pGlu]PQPYPEQPQPYP-NH2; SMILES NC(=O)CC[C@H](NC(=O)[C@H](CCC(=O)O)NC(=O)[C@@H]1CCCN1C(=O)[C@H](Cc1ccc(O)cc1)NC(=O)[C@@H]1CCCN1C(=O)[C@H](CCC(N)=O)NC(=O)[C@@H]1CCCN1C(=O)[C@@H]1CCC(=O)N1)C(=O)N1CCC[C@H]1C(=O)N[C@@H](CCC(N)=O)C(=O)N1CCC[C@H]1C(=O)N[C@@H](Cc1ccc(O)cc1)C(=O)N1CCC[C@H]1C(N)=O) 52 SFU

###

# Tested on: Patient 2 TCC-01
# Assay Summary: IFN-γ ELISpot with T cell clone
# Assay type: cell-based, human
# Stated Conditions: TCC Patient 2 TCC-01 (Table 5); mean no antigen 1.1
Where no end group is shown, it is not given here. [ ]: non-standard residue; d: D form. pGlu = O=C1CC[C@@H](C(=O)O)N1
Readout Kind: IFN-γ ELISpot response (raw SFU)
Field: numeric (SFU). Do not append units.

Query the reported IFN-γ ELISpot response (raw SFU) for Patient 2 TCC-01; item: PEQPFPEQPQPYPQQP [barley peptide, AFM77740.1 (25-40) [Q26 to E, Q31 to E]] 202

Follow-up item: FPEQPIPEQPQPYP [barley peptide, 1103203A (30-43) [Q232 to E, Q37 to E]] 1

Follow-up item: FPEQPVPEQPQPYP [barley peptide, 1103203B (30-43) [Q32 to E, Q37 to E]] 2

Follow-up item: QYQPYPEQQQPILQQQ [avenin peptide, Genbank AAB32025 (7-22), wild-type] 79

Follow-up item: PQPFPEQPIPEQPQPY [barley peptide, 1103203A (27-42) [Q32 to E, Q37 to E]] 1

Follow-up item: pEPEQTFPEQPQLPF ([pGlu]PEQTFPEQPQLPF) [wheat peptide, AAK84780.1 (5-18) [Q5 to pyroglutamate, Q7 to E, Q12 to E], reference compound] 2

Follow-up item: SEQYQPYPEQQQPFVQ [avenin peptide, wild-type] 100

Follow-up item: PQPYPEQPQPFPQQPP [barley peptide, 1103203B (39-54) [Q44 to E]] 292

Follow-up item: pEPFPEQPEQPYPQQ ([pGlu]PFPEQPEQPYPQQ) [wheat peptide, CAC11056.1 (53-66) [Q53 to pyroglutamate, Q57 to E, Q60 to E], reference compound] 150

The reported measurements were obtained from patent US20160238590A1.
